The origin of these recorded values is ChEMBL document CHEMBL3745672.

- target.or.test.system: Mitogen-activated protein kinase 8 (Homo sapiens, UniProt P45983)
- Sequence (P45983 whole entry): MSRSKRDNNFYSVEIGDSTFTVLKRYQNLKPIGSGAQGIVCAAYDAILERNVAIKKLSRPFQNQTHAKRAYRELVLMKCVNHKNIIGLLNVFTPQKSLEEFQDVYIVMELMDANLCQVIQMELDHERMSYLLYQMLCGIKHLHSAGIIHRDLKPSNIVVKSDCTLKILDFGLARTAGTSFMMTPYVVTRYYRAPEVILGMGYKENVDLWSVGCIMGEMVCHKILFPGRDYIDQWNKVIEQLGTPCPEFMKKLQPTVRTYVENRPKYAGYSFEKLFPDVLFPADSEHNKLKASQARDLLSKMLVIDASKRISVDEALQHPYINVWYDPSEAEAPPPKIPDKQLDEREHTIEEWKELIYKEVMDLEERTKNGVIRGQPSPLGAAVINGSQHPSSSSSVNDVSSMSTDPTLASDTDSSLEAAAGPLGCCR
- procedure.details: Inhibition of JNK1 (unknown origin) expressed in HEK293 cells assessed as anisomycin-induced c-Jun phosphorylation at 10 uM incubated for 30 mins by Western blot analysis relative to anisomycin
- Assay type: cell-based
- Design: scale not given: the % may be the effect or the level left
value.type: Activity (%)

molecule=Cn1c(=O)c(Oc2ccc(F)cc2F)cc2cnc(NC3CCN(S(C)(=O)=O)CC3)nc21 value_type=Activity numeric_value=87.1
molecule=CN(C)CCNc1ncc2cc(Oc3ccc(F)cc3F)c(=O)n(C)c2n1 value_type=Activity numeric_value=110
molecule="Cn1c(=O)c(Oc2c(Cl)cccc2Cl)cc2cnc(N3CCC(O)C3)nc21 (stereo not drawn)" value_type=Activity numeric_value=82.5
molecule=Cn1c(=O)c(Oc2ccc(F)cc2F)cc2cnc(NC3CCCCCC3)nc21 value_type=Activity numeric_value=119
molecule=Cn1c(=O)c(Oc2ccc(F)cc2F)cc2cnc(Nc3ccc(N4CCCCC4)cc3)nc21 value_type=Activity numeric_value=131
molecule=Cn1c(=O)c(Oc2c(Cl)cccc2Cl)cc2cnc(NCc3ccccn3)nc21 value_type=Activity numeric_value=115
molecule=Cn1c(=O)c(Oc2ccc(F)cc2F)cc2cnc(NCCc3ccccn3)nc21 value_type=Activity numeric_value=96.4
molecule=CCOC(=O)N1CCC(Nc2ncc3cc(Oc4ccc(F)cc4F)c(=O)n(C)c3n2)CC1 value_type=Activity numeric_value=42
molecule=Cn1c(=O)c(Oc2c(Cl)cccc2Cl)cc2cnc(N3CCC(O)CC3)nc21 value_type=Activity numeric_value=99.1
molecule=Cn1c(=O)c(Oc2ccc(F)cc2F)cc2cnc(N3CCC(CO)CC3)nc21 value_type=Activity numeric_value=121
molecule=CN1CCN(c2ccc(Nc3ncc4cc(Oc5c(Cl)cccc5Cl)c(=O)n(C)c4n3)cc2)CC1 value_type=Activity numeric_value=60.9
molecule=CC(C)Nc1ncc2cc(Oc3ccc(F)cc3F)c(=O)n(C)c2n1 value_type=Activity numeric_value=81
molecule=O=C(O)c1ccccc1Nc1ccnc(Nc2cccc(F)c2)n1 value_type=Activity numeric_value=46
molecule=Cn1c(=O)c(Oc2ccc(F)cc2F)cc2cnc(NC3CCN(S(N)(=O)=O)CC3)nc21 value_type=Activity numeric_value=89.4
molecule=CN1CCN(CCCNc2ncc3cc(Oc4ccc(F)cc4F)c(=O)n(C)c3n2)CC1 value_type=Activity numeric_value=137
molecule="Cn1c(=O)c(Oc2ccc(F)cc2F)cc2cnc(N3CCC(O)C3)nc21 (stereo not drawn)" value_type=Activity numeric_value=111
molecule=Cn1c(=O)c(Oc2ccc(F)cc2F)cc2cnc(NC(CCO)CCO)nc21 value_type=Activity numeric_value=94
molecule=Cn1c(=O)c(Oc2ccc(F)cc2F)cc2cnc(NC3CCCC3)nc21 value_type=Activity numeric_value=66.5
molecule=O=C(O)c1ccccc1Nc1ccnc(Nc2cccc(O)c2)n1 value_type=Activity numeric_value=88
molecule=Cn1c(=O)c(Oc2c(Cl)cccc2Cl)cc2cnc(NC3CCCC3)nc21 value_type=Activity numeric_value=115
molecule=Cn1c(=O)c(Oc2ccc(F)cc2F)cc2cnc(N3CCC(O)CC3)nc21 value_type=Activity numeric_value=131
molecule=Cn1c(=O)c(Oc2ccc(F)cc2F)cc2cnc(Nc3ccc(N4CCC(O)CC4)cc3)nc21 value_type=Activity numeric_value=57.5
molecule=Cn1c(=O)c(Oc2ccc(F)cc2F)cc2cnc(NCc3cccc(C(F)(F)F)c3)nc21 value_type=Activity numeric_value=101
